TARGET SYSTEM: DNA topoisomerase 2-alpha (Homo sapiens)
ASSAY REMARKS: Inhibition of recombinant human topoisomerase 2alpha assessed as decrease in relaxation of supercoiled pUC19 DNA at 100 uM after 30 mins by ethidium bromide staining based agarose gel electrophoresis relative to control
Please map values of inhibition to classes as shown: group 1 (below 10%), group 2 (10% to below 60%), group 3 (60% or more)

- CCOc1cc(/C=N/N2C(=O)C(C#N)=CC23c2ccccc2Nc2ccccc23)ccc1O: group 2
- CN(C)c1ccc(/C=N/N2C(=O)C(C#N)=CC23c2ccccc2Nc2ccccc23)cc1: group 1
- N#CC1=CC2(c3ccccc3Nc3ccccc32)N(/N=C/c2ccccc2[N+](=O)[O-])C1=O: group 1
- N#CC1=CC2(c3ccccc3Nc3ccccc32)N(/N=C/c2c(Cl)cccc2Cl)C1=O: group 2
- N#CC1=CC2(c3ccccc3Nc3ccccc32)N(/N=C/c2ccc(Cl)cc2)C1=O: group 3
- N#CC1=CC2(c3ccccc3Nc3ccccc32)N(/N=C/c2ccc(F)cc2)C1=O: group 3
- COc1ccc(Br)cc1/C=N/N1C(=O)C(C#N)=CC12c1ccccc1Nc1ccccc12: group 1
- COc1ccc(/C=N/N2C(=O)C(C#N)=CC23c2ccccc2Nc2ccccc23)cc1: group 3
- N#CC1=CC2(c3ccccc3Nc3ccccc32)N(/N=C/c2ccc([N+](=O)[O-])cc2)C1=O: group 2
